Target: T1, human CD47, endogenous cell surface form (Raji, CCRF-CEM cells) (human, UniProt Q08722 19-323)
T1 construct: the cells carry endogenous CD47; also called cell surface CD47
Assay: flow cytometry on Raji cells, MFI (FL4)
attribute measured: EC50 (read off the curve)

Problem: Which EC50 (read off the curve) is reported for this binder? AB2.09 (antibody, V domains shown) VH: QMQLVQSGAEVKKTGSSVKVSCKASGFNIKDYYLHWVRQAPGQALEWMGWIDPDNGDTEYAQKFQDRVTITRDRSMSTAYMELSSLRSEDTAMYYCNAAYGSSSYPMDYWGQGTTVTV VL: DIQMTQSPSAMSASVGDRVTITCKASQDIHRYLSWFQQKPGKVPKHLIYRANRLVDGVPSRFSGSGSGTEFTLTISSLQPEDFATYYCLQYDEFPYTFGGGTKVEIK
Result: ~0.2 nM
